Tested on: SF-295
Settings: read-out: Median Lethal Concentration (LC50); CNS Cancer, SF-295; 48 hours, SRB assay
recorded-metric: CC50 (µM)
Write the answer as a number in µM, unit excluded.

# input compound: O=C1C(=Cc2ccccc2O)COCC1=Cc1ccccc1O ; wanted: its CC50
35

###

Each item that follows carries a reported viability at 5 µM.
Test system: RPMI-7951 human melanoma
Assay: Neutral Red Assay, cell viability, RPMI-7951
Settings: Homo sapiens, RPMI-7951, 72 h, read-out: Neutral Red Uptake, %
Write the answer as a number in %, unit excluded.

compound	viability at 5 µM (%)
O=C1CCC(N2C(=O)c3ccccc3C2=O)C(=O)N1 (stereo not shown) [Thalidomide, reference compound]	100

# input compound: O=C(C=Cc1cccc(O)c1)C=Cc1cccc(O)c1 ; wanted: its viability at 5 µM
77

Continue with O=C1C(=Cc2ccccc2O)CCCC1=Cc1ccccc1O
98

Continue with O=C(C=Cc1ccccc1F)C=Cc1ccccc1F
97

###

Test system: SR
Conditions: read-out: Median Lethal Concentration (LC50), Leukemia, 48 hours, SRB assay
recorded-metric: CC50 (µM)
Write the answer as a number in µM, unit excluded.

# input compound: O=C1C(=Cc2ccccc2O)COCC1=Cc1ccccc1O [EF25] ; wanted: its CC50
76.3

###

Tested on: SNB-75
Conditions: read-out: Median Lethal Concentration (LC50); CNS Cancer, SNB-75; 48 hours, SRB assay
recorded-metric: CC50 (µM)
Write the answer as a number in µM, unit excluded.

Notebook: pull reported CC50 for SNB-75, entry O=C1C(=Cc2ccccc2O)COCC1=Cc1ccccc1O
14

###

Test system: HS 578T
Details: read-out: Median Lethal Concentration (LC50), Breast Cancer, 48 hours, SRB assay
recorded-metric: CC50 (µM)
Write the answer as a number in µM, unit excluded.

# input compound: O=C1C(=Cc2ccccc2O)COCC1=Cc1ccccc1O [EF25] ; wanted: its CC50
72.3

###

Each item that follows carries a reported CC50.
Test system: UACC-257
Experiment: cells
Conditions: Homo sapiens, UACC-257, 48 h, read-out: Median Lethal Concentration (LC50)

Solved entries:
molecule	measurement-target	CC50
O=C1C(=Cc2ccccc2O)CCCC1=Cc1ccccc1O	UACC-257	57.8 µM
CC1(/C=C/c2ccccc2O)C=Cc2ccccc2O1 (stereo not drawn)	UACC-257	55.2 µM
COc1cc(/C=C/C(=O)CC(=O)/C=C/c2ccc(O)c(OC)c2)ccc1O	UACC-257	50.1 µM
O=C(C=Cc1ccc(F)cc1F)C=Cc1ccc(F)cc1F	UACC-257	62.1 µM
OC(CCc1ccc(F)cc1F)CCc1ccc(F)cc1F	UACC-257	56.3 µM

# input molecule: CC(=O)O.O=C1C(=Cc2ccccc2F)CNCC1=Cc1ccccc1F ; wanted: its CC50
13.5 µM

###

Test system: RPMI-7951 human melanoma
Test: Neutral Red Assay, cell viability, RPMI-7951
Details: RPMI-7951; 20 μM; DMSO = 100
Each item that follows carries a reported Cell Viability.

# input molecule: COc1cc(CC2CCCC(Cc3ccc(O)c(OC)c3)C2=O)ccc1O (centres unmarked) [Compound A231U] ; wanted: its Cell Viability
80%

Continue with COc1cc(CCC(=O)CC(=O)CCc2ccc(O)c(OC)c2)ccc1O
78%

Continue with COc1cc(CC2CCCC(Cc3ccc(O)c(OC)c3)C2O)ccc1O (centres unmarked) [Compound A231L]
77%

Continue with O=S(=O)(/C=C/c1ccccc1)/C=C/c1ccccc1
92%

Continue with COc1ccc(C=CC(O)CCc2ccc(OC)c(OC)c2)cc1OC (centres unmarked)
86%

###

Tested on: A498
Conditions: read-out: Median Lethal Concentration (LC50); Renal Cancer, A498; 48 hours, SRB assay
recorded-metric: CC50 (µM)
Write the answer as a number in µM, unit excluded.

# input compound: O=C1C(=Cc2ccccc2O)COCC1=Cc1ccccc1O ; wanted: its CC50
6

###

Tested on: CAKI-1
Conditions: read-out: Median Lethal Concentration (LC50); Renal Cancer, CAKI-1; 48 hours, SRB assay
recorded-metric: CC50
Answer with the number, then the unit.

# input compound: O=C1C(=Cc2ccccc2O)COCC1=Cc1ccccc1O ; wanted: its CC50
53.7 µM

###

Tested on: SK-MEL-28
Test: cells
Conditions: Homo sapiens, SK-MEL-28, 48 h, read-out: Median Lethal Concentration (LC50)
# label = Y if CC50 < 60 µM else N

Past entries and their recorded results:
compound	classification
CC(=O)O.O=C1C(=Cc2ccccc2F)CNCC1=Cc1ccccc1F	Y
CC1(/C=C/c2ccccc2O)C=Cc2ccccc2O1 (stereo not drawn)	N
OC(CCc1ccc(F)cc1F)CCc1ccc(F)cc1F	Y
O=C1C(=Cc2ccccc2O)CCCC1=Cc1ccccc1O	Y

Shifting focus to the compound that follows.
Determine whether this compound shows CC50 lower than 60 µM (ties excluded): COc1cc(/C=C/C(=O)CC(=O)/C=C/c2ccc(O)c(OC)c2)ccc1O
Y

###

Test system: HT29
Conditions: read-out: Median Lethal Concentration (LC50); Colon Cancer, HT29; 48 hours, SRB assay
recorded-metric: CC50
Answer with the number, then the unit.

Notebook: pull reported CC50 for HT29, entry O=C1C(=Cc2ccccc2O)COCC1=Cc1ccccc1O
67.5 µM

###

System: RPMI-8226
Settings: read-out: Median Lethal Concentration (LC50); Leukemia, RPMI-8226; 48 hours, SRB assay
recorded-metric: CC50

# input compound: O=C1C(=Cc2ccccc2O)COCC1=Cc1ccccc1O ; wanted: its CC50
70.9 µM

###

System: ACHN
Settings: read-out: Median Lethal Concentration (LC50), Renal Cancer, 48 hours, SRB assay
recorded-metric: CC50 (µM)
Write the answer as a number in µM, unit excluded.

# input molecule: O=C1C(=Cc2ccccc2O)COCC1=Cc1ccccc1O ; wanted: its CC50
18.2

###

System: UACC-62
Experiment: cells
Conditions: Homo sapiens, UACC-62, 48 h, read-out: Median Lethal Concentration (LC50)
recorded-metric: log10 CC50 (log10 of the value in µM)
Record value = log10 of CC50 given in µM.

Solved entries:
molecule	log10 CC50
O=C(C=Cc1ccc(F)cc1F)C=Cc1ccc(F)cc1F	1.72
CC(=O)O.O=C1C(=Cc2ccccc2F)CNCC1=Cc1ccccc1F	0.65
O=C1C(=Cc2ccccc2O)CCCC1=Cc1ccccc1O	0.79
CC1(/C=C/c2ccccc2O)C=Cc2ccccc2O1 (stereo not drawn)	1.70
COc1cc(/C=C/C(=O)CC(=O)/C=C/c2ccc(O)c(OC)c2)ccc1O	1.70

Then this molecule:
# input molecule: OC(CCc1ccc(F)cc1F)CCc1ccc(F)cc1F ; wanted: its log10 CC50
1.73

###

Test system: COLO 205
Details: read-out: Median Lethal Concentration (LC50); Colon Cancer, COLO 205; 48 hours, SRB assay
recorded-metric: CC50 (µM)
Write the answer as a number in µM, unit excluded.

# input compound: O=C1C(=Cc2ccccc2O)COCC1=Cc1ccccc1O ; wanted: its CC50
33.4

###

Each item that follows carries a reported GI50.
Test system: DU-145
Experiment: cells
Conditions: Homo sapiens, DU-145, 48 h, read-out: Median Growth Inhibitory Concentration (GI50)
Answer with the number, then the unit.

Solved entries:
molecule	measurement-target	result
CC(=O)O.O=C1C(=Cc2ccccc2F)CNCC1=Cc1ccccc1F	DU-145	0.7 µM
O=C1C(=Cc2ccccc2O)CCCC1=Cc1ccccc1O	DU-145	1.4 µM
O=C(C=Cc1ccc(F)cc1F)C=Cc1ccc(F)cc1F	DU-145	2.1 µM
CC1(/C=C/c2ccccc2O)C=Cc2ccccc2O1 (stereo not drawn)	DU-145	16.4 µM
COc1cc(/C=C/C(=O)CC(=O)/C=C/c2ccc(O)c(OC)c2)ccc1O	DU-145	15.8 µM

# input molecule: OC(CCc1ccc(F)cc1F)CCc1ccc(F)cc1F ; wanted: its GI50
18.1 µM

###

System: U251
Conditions: read-out: Median Lethal Concentration (LC50); CNS Cancer, U251; 48 hours, SRB assay
recorded-metric: CC50 (µM)
Write the answer as a number in µM, unit excluded.

# input molecule: O=C1C(=Cc2ccccc2O)COCC1=Cc1ccccc1O ; wanted: its CC50
5.8

###

Tested on: SF-268
Test: cells
Details: Homo sapiens, SF-268, 48 h, read-out: Median Lethal Concentration (LC50)
Each item that follows carries a reported CC50.

molecule	measurement-target	CC50
O=C1C(=Cc2ccccc2O)CCCC1=Cc1ccccc1O	SF-268	53.2 µM

# input molecule: O=C(C=Cc1ccc(F)cc1F)C=Cc1ccc(F)cc1F ; wanted: its CC50
> 100 µM

Continue with OC(CCc1ccc(F)cc1F)CCc1ccc(F)cc1F
85.3 µM

Continue with CC(=O)O.O=C1C(=Cc2ccccc2F)CNCC1=Cc1ccccc1F
55.6 µM

Continue with COc1cc(/C=C/C(=O)CC(=O)/C=C/c2ccc(O)c(OC)c2)ccc1O
< 100 µM

Continue with CC1(/C=C/c2ccccc2O)C=Cc2ccccc2O1 (stereo not drawn)
> 100 µM
